- tested_system: T1, recombinant human NKG2D-Fc (human, UniProt P26718 73-216)
- T1 construct: extracellular domain; also called human NKG2D-Fc fusion protein; NKG2D-Fc-biotin; not shown: human IgG1 Fc domain
- T1 sequence (looked up): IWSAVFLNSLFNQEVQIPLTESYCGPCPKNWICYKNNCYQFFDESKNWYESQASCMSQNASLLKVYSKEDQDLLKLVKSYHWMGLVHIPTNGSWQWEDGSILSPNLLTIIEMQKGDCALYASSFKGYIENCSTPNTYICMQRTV
- procedure_details: ELISA on coated NKG2D-Fc;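 also: titrated NKG2D-binding domains on plate-bound human, mouse or cynomolgus NKG2D ectodomain–human IgG1 Fc fusions, detected with HRP anti-human kappa secondary and TMB, absorbance at 450 nm corrected at 540 nm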

- binder: "ADI-29407 (antibody, V domains shown) VH: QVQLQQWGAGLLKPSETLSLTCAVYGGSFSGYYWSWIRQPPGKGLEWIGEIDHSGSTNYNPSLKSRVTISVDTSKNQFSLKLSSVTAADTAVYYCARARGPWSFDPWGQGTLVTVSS VL: DIQMTQSPSTLSASVGDRVTITCRASQSISSWLAWYQQKPGKAPKLLIYKASSLESGVPSRFSGSGSGTEFTLTISSLQPDDFATYYCQQYQSFPTFGGGTKVEIK"
  binding result: "binds"
- binder: "ADI-29429 (antibody, V domains shown) VH: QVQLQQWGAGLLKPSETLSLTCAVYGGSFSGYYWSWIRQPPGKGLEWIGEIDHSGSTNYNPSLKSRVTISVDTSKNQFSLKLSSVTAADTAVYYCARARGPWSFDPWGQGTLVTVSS VL: DIQMTQSPSTLSASVGDRVTITCRASQSIGSWLAWYQQKPGKAPKLLIYKASSLESGVPSRFSGSGSGTEFTLTISSLQPDDFATYYCQQYELYSYTFGGGTKVEIK"
  binding result: "binds"
